Biological target: T1, canine CD20 (canine, UniProt Q3C2E2 1-297)
T1 chain: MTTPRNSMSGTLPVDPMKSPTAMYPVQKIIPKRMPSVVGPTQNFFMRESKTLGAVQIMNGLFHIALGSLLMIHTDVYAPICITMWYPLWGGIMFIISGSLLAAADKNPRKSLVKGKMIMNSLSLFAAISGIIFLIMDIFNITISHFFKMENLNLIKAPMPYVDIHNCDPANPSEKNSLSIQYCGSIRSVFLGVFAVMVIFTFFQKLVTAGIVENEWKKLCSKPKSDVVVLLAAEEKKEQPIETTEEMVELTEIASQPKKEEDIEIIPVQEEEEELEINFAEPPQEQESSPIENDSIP
Assay: cell-based or functional assay

- Binder: "PMX074 (antibody, V domains shown) VH: EVQLVESGGDLVKPGGSLRLSCVASGFTFSRYYMTWVRQAPGKGLQWVAYINSDRRSTTYADAVKGRFTISRDNAKNTLYLQMNSLRAEDTAVYYCTTLEYWGQGTLVTVSS VL: SYVLTQLPSKNVTLKQPAHITCGGDNIGSKSVHWYQQKLGQAPVLIIYYDSRRPTGIPERFSGANSGNTATLTINGALAEDEADYYCQVWDSSANVFGGGTHLTVL"
  ADCC Maximum killing (%): "51%"
- Binder: "PMX080 (antibody, V domains shown) VH: EVQLVESGGDLVKPGGSLRLSCVASGLTFSRYYMNWVRQAPGKGLQWVAYIDSGGSPTNYADAVKGRFTISRDNAKNTLYLQMNSLRAEDTAVYYCSSFDYWGQGTLVTVSS VL: SYVVTQLPSNTVTLKQPAHITCGGDNIGSKSVHWYQQKLGQAPVLIIYYDSRRPTGIPERFSGANSGNTATLTISGALAEDEADYYCQVWDSSANVFGGGTHLTVL"
  ADCC Maximum killing (%): "50%"
- Binder: "PMX073 (antibody, V domains shown) VH: EVQLVESGGDLVKPGGSLRLSCVASGFTFSRYYMNWVRQAPGKGLQWVAFITSGGSSTSYGDAVKGRFTISRDNAKNTLYLQMNSLRAEDTAVYYCTSFDYWGQGTLVTVSS VL: SYVLTQLPSKNVTLKQPAHITCGGDNIGSKSVHWYQQKLGQAPVLIIYYASSRPTGIPERFSGANSGNTATLTISGALAEDEADYYCQVWDSSANVFGGGTHLTVL"
  ADCC Maximum killing (%): "48%"
